- experimental_details: Stability in rat plasma
- Assay type: in vitro ADME
- measurement_context: both sexes, SD rat plasma, EDTA, 37° C., read-out: t½: Rat Plasma EDTA (converted)
Bridge positions count the residues as written; N and C are the ends. Square brackets hold non-standard residues; d marks the D form. Peptide text beside a SMILES is read from it. Trp(7-Me) = Cc1cccc2c(C[C@H](N)C(=O)O)c[nH]c12; 2Nal = N[C@@H](Cc1ccc2ccccc2c1)C(=O)O; AEF = NCCOc1ccc(C[C@H](N)C(=O)O)cc1; Cit = NC(=O)NCCC[C@H](N)C(=O)O; Pen = CC(C)(S)[C@H](N)C(=O)O; αMeK = C[C@](N)(CCCCN)C(=O)O; Aib = CC(C)(N)C(=O)O; βAla = NCCC(=O)O
Each record here notes measured half-life at 20 μM.
measured_parameter: half-life at 20 μM

[[record]]
molecule = "CC(=O)N[C@@H]1C(=O)N[C@@H](CC(N)=O)C(=O)N[C@@H]([C@@H](C)O)C(=O)N[C@@H](Cc2c[nH]c3c(C)cccc23)C(=O)N[C@@H](CCCNC(N)=O)C(=O)N[C@H](C(=O)N[C@@H](Cc2ccc(OCCN)cc2)C(=O)N[C@@H](Cc2ccc3ccccc3c2)C(=O)N[C@@](C)(CCCCN)C(=O)N[C@@H](CCCNC(N)=O)C(=O)NCCC(=O)NCCC(N)=O)C(C)(C)SSC1(C)C [compound 281] (Ac-[Pen]NT[Trp(7-Me)][Cit][Pen][AEF][2Nal][αMeK][Cit][βAla][βAla]-NH2; disulfide 1-6)"
measured_parameter = "half-life at 20 μM"
value_reported = "> 24 h"

[[record]]
molecule = "CC(=O)NCCCC[C@H](NC(=O)[C@](C)(CCCCN)NC(=O)[C@H](Cc1ccc2ccccc2c1)NC(=O)[C@H](Cc1ccc(OCCN)cc1)NC(=O)[C@H]1NC(=O)[C@H](CCCNC(N)=O)NC(=O)[C@H](Cc2c[nH]c3c(C)cccc23)NC(=O)[C@H]([C@@H](C)O)NC(=O)[C@H](CC(N)=O)NC(=O)[C@@H](NC(C)=O)C(C)(C)SSC1(C)C)C(=O)N[C@@H](CC(N)=O)C(=O)NC(C)(C)C(=O)N[C@@H](C)C(N)=O [compound 342] (Ac-[Pen]NT[Trp(7-Me)][Cit][Pen][AEF][2Nal][αMeK]K(Ac)N[Aib]A-NH2; disulfide 1-6)"
measured_parameter = "half-life at 20 μM"
value_reported = "> 24 h"


Ref: patent US11041000B2
